Record form. Attribute: Bliss excess. Fill in for each entry.
# Test system: HCC-15 (Squamous Cell Lung Carcinoma)
# experimentSummary: Bliss excess, mean over the matrix (fraction); higher = more synergy;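 note: after 72 h of two-drug dosing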
The answer should be written as a number, with no unit following it.

Look at this molecule and give its reported Bliss excess. CN(C)CCCOc1ccc(-c2ccc3ncc4c(c3c2)n(C2CCOCC2)c(=O)n4C)cn1 [AZD0156] + O=C(c1cc(Cc2n[nH]c(=O)c3ccccc23)ccc1F)N1CCN(C(=O)C2CC2)CC1 [Olaparib] (first compound max 3 µM, partner max 3 µM)
0.136

Look at this molecule and give its reported Bliss excess. COc1cc2c(cc1OCCCCCOc1cc3c(cc1OC)C(=O)N1C=C(C)C[C@H]1C=N3)N=C[C@@H]1CC(C)=CN1C2=O [SG3199] + O=C(c1cc(Cc2n[nH]c(=O)c3ccccc23)ccc1F)N1CCN(C(=O)C2CC2)CC1 [Olaparib] (first compound max 0.001 µM, 7x7, partner max 10 µM)
-0.0166

Look at this molecule and give its reported Bliss excess. C[C@@H](c1ccc2nccn2c1)n1nnc2ncc(-c3cnn(C)c3)nc21 [Savolitinib] + Cc1c2c(nn1C)CSCc1cc(n(C)n1)CSc1cc(c3ccccc3c1)OCCCc1c(C(=O)O)n(C)c3c-2c(Cl)ccc13 [AZD5991] (first compound max 1 µM, 7x7, partner max 1 µM)
-0.0349

Look at this molecule and give its reported Bliss excess. CCc1c2c(nc3ccc(O)cc13)-c1cc3c(c(=O)n1C2)COC(=O)[C@]3(O)CC [SN-38] + CN(C)CCCOc1ccc(-c2ccc3ncc4c(c3c2)n(C2CCOCC2)c(=O)n4C)cn1 [AZD0156] (first compound max 0.3 µM, 7x7, partner max 1 µM)
0.16

----------
Record form. Attribute: Bliss excess. Fill in for each entry.
# Test system: KARPAS-231 (B-Cell Non-Hodgkin's Lymphoma)
# experimentSummary: Bliss excess, mean over the matrix (fraction); higher = more synergy
The answer should be written as a number, with no unit following it.

Look at this molecule and give its reported Bliss excess. Cc1cc2ncnn2cc1Nc1ncc2c(n1)n(C1CCOCC1)c(=O)n2C [AZD7648] + C=CCn1c(=O)c2cnc(Nc3ccc(N4CCN(C)CC4)cc3)nc2n1-c1cccc(C(C)(C)O)n1 [AZD1775] (first compound max 10 µM, partner max 1 µM)
-0.0309

Look at this molecule and give its reported Bliss excess. CCN(CCO)CCCOc1ccc2c(Nc3cc(CC(=O)Nc4cccc(F)c4)[nH]n3)ncnc2c1 [AZD2811] + C=CCn1c(=O)c2cnc(Nc3ccc(N4CCN(C)CC4)cc3)nc2n1-c1cccc(C(C)(C)O)n1 [AZD1775] (first compound max 1 µM, partner max 1 µM)
0.0395

Look at this molecule and give its reported Bliss excess. CC1(C)CCC(CN2CCN(c3ccc(C(=O)NS(=O)(=O)c4ccc(NCC5CCOCC5)c([N+](=O)[O-])c4)c(Oc4cnc5[nH]ccc5c4)c3)CC2)=C(c2ccc(Cl)cc2)C1 [Venetoclax] + C[C@@H]1COCCN1C2=NC(=NC(=C2)C3(CC3)[S@](=N)(=O)C)C4=C5C=CNC5=NC=C4 [AZD6738] (first compound max 1 µM, 7x7, partner max 10 µM)
-0.18

Look at this molecule and give its reported Bliss excess. CCc1c2c(nc3ccc(O)cc13)-c1cc3c(c(=O)n1C2)COC(=O)[C@]3(O)CC [SN-38] + CN(C)CCCOc1ccc(-c2ccc3ncc4c(c3c2)n(C2CCOCC2)c(=O)n4C)cn1 [AZD0156] (first compound max 0.3 µM, 7x7, partner max 1 µM)
0.0202

Look at this molecule and give its reported Bliss excess. Cc1cc2ncnn2cc1Nc1ncc2c(n1)n(C1CCOCC1)c(=O)n2C [AZD7648] + CN(C)CCCOc1ccc(-c2ccc3ncc4c(c3c2)n(C2CCOCC2)c(=O)n4C)cn1 [AZD0156] (first compound max 10 µM, 7x7, partner max 1 µM)
0.0157

Look at this molecule and give its reported Bliss excess. COc1nnc2ccc(N3CCC(c4ccc(OCCN5CCN(C)C(=O)[C@H]5C)cc4)CC3)nn12 [AZD5153] + CC1(C)CCC(CN2CCN(c3ccc(C(=O)NS(=O)(=O)c4ccc(NCC5CCOCC5)c([N+](=O)[O-])c4)c(Oc4cnc5[nH]ccc5c4)c3)CC2)=C(c2ccc(Cl)cc2)C1 [Venetoclax] (first compound max 1 µM, 7x7, partner max 1 µM)
-0.135

Look at this molecule and give its reported Bliss excess. COc1cccc(OCCCN)c1-c1cc(Nc2cnc(C#N)cn2)n[nH]1 [Prexasertib] + O=C(c1cc(Cc2n[nH]c(=O)c3ccccc23)ccc1F)N1CCN(C(=O)C2CC2)CC1 [Olaparib] (first compound max 1 µM, 7x7, partner max 10 µM)
-0.0206

----------
Record form. Attribute: Bliss excess. Fill in for each entry.
# Test system: CTB-1 (B-Cell Non-Hodgkin's Lymphoma)
# experimentSummary: Bliss excess, mean over the matrix (fraction); higher = more synergy
The answer should be written as a number, with no unit following it.

Write down the reported Bliss excess of CN(CCO)CC[C@H](CSc1ccccc1)Nc1ccc(S(=O)(=O)NC(=O)c2ccc(N3CCC([C@@H](O)c4ccccc4-c4ccc(Cl)cc4)CC3)cc2)cc1S(=O)(=O)C(F)(F)F [AZD4320] + CCN(CCO)CCCOc1ccc2c(Nc3cc(CC(=O)Nc4cccc(F)c4)[nH]n3)ncnc2c1 [AZD2811] (first compound max 1 µM, 7x7, partner max 1 µM) , test system: CTB-1 (B-Cell Non-Hodgkin's Lymphoma).
-0.0596

Write down the reported Bliss excess of Cc1c2c(nn1C)CSCc1cc(n(C)n1)CSc1cc(c3ccccc3c1)OCCCc1c(C(=O)O)n(C)c3c-2c(Cl)ccc13 [AZD5991] + CC1(C)CCC(CN2CCN(c3ccc(C(=O)NS(=O)(=O)c4ccc(NCC5CCOCC5)c([N+](=O)[O-])c4)c(Oc4cnc5[nH]ccc5c4)c3)CC2)=C(c2ccc(Cl)cc2)C1 [Venetoclax] (first compound max 1 µM, 7x7, partner max 1 µM) , test system: CTB-1 (B-Cell Non-Hodgkin's Lymphoma).
-0.0491

----------
Record form. Attribute: Bliss excess. Fill in for each entry.
# System: PCI-30 (Head and Neck Carcinoma)
# experimentSummary: Bliss excess, mean over the matrix (fraction); higher = more synergy

Look at this compound and give its reported Bliss excess. CC1(C)CCC(CN2CCN(c3ccc(C(=O)NS(=O)(=O)c4ccc(NCC5CCOCC5)c([N+](=O)[O-])c4)c(Oc4cnc5[nH]ccc5c4)c3)CC2)=C(c2ccc(Cl)cc2)C1 [Venetoclax] + Cn1cnc2c(F)c(Nc3ccc(Br)cc3Cl)c(C(=O)NOCCO)cc21 [Selumetinib] (first compound max 1 µM, 7x7, partner max 3 µM)
-0.0429

Look at this compound and give its reported Bliss excess. C=CCn1c(=O)c2cnc(Nc3ccc(N4CCN(C)CC4)cc3)nc2n1-c1cccc(C(C)(C)O)n1 [AZD1775] + O=C(c1cc(Cc2n[nH]c(=O)c3ccccc23)ccc1F)N1CCN(C(=O)C2CC2)CC1 [Olaparib] (first compound max 1 µM, partner max 10 µM)
-0.0579

----------
Record form. Attribute: Bliss excess. Fill in for each entry.
# Tested on: SU-DHL-6 (B-Cell Non-Hodgkin's Lymphoma)
# experimentSummary: Bliss excess, mean over the matrix (fraction); higher = more synergy
The answer should be written as a number, with no unit following it.

Look at this compound and give its reported Bliss excess. NC1(C(=O)N[C@@H](CCO)c2ccc(Cl)cc2)CCN(c2ncnc3[nH]ccc23)CC1 [Capivasertib] + C[C@@H]1COCCN1C2=NC(=NC(=C2)C3(CC3)[S@](=N)(=O)C)C4=C5C=CNC5=NC=C4 [AZD6738] (first compound max 10 µM, 7x7, partner max 10 µM)
0.0023

Look at this compound and give its reported Bliss excess. CN(CCO)CC[C@H](CSc1ccccc1)Nc1ccc(S(=O)(=O)NC(=O)c2ccc(N3CCC([C@@H](O)c4ccccc4-c4ccc(Cl)cc4)CC3)cc2)cc1S(=O)(=O)C(F)(F)F [AZD4320] + CS(=O)(=O)CCNCc1ccc(-c2ccc3ncnc(Nc4ccc(OCc5cccc(F)c5)c(Cl)c4)c3c2)o1 [Lapatinib] (first compound max 1 µM, 7x7, partner max 10 µM)
0.0749

Look at this compound and give its reported Bliss excess. Cc1nc(-c2cn3c(n2)-c2ccc(-c4cnn(C(C)(C)C(N)=O)c4)cc2OCC3)n(C(C)C)n1 [Taselisib] + O=C(Nc1ccc2[nH]nc(-c3ccncc3)c2c1)[C@@H]1CCN(CC(=O)N2CCN(c3ccc(-c4ncccn4)cc3)CC2)C1 [SCH772984] (first compound max 10 µM, 7x7, partner max 5 µM)
0.0251

Look at this compound and give its reported Bliss excess. Cc1c2c(nn1C)CSCc1cc(n(C)n1)CSc1cc(c3ccccc3c1)OCCCc1c(C(=O)O)n(C)c3c-2c(Cl)ccc13 [AZD5991] + CC1(C)CCC(CN2CCN(c3ccc(C(=O)NS(=O)(=O)c4ccc(NCC5CCOCC5)c([N+](=O)[O-])c4)c(Oc4cnc5[nH]ccc5c4)c3)CC2)=C(c2ccc(Cl)cc2)C1 [Venetoclax] (first compound max 1 µM, 7x7, partner max 1 µM)
0.0744

Look at this compound and give its reported Bliss excess. CC1(C)CCC(CN2CCN(c3ccc(C(=O)NS(=O)(=O)c4ccc(NCC5CCOCC5)c([N+](=O)[O-])c4)c(Oc4cnc5[nH]ccc5c4)c3)CC2)=C(c2ccc(Cl)cc2)C1 [Venetoclax] + COc1cc(Nc2ncc3c(n2)-c2ccc(Cl)cc2C(c2c(F)cccc2OC)=NC3)ccc1C(=O)O [Alisertib] (first compound max 1 µM, 7x7, partner max 10 µM)
0.121

Look at this compound and give its reported Bliss excess. COc1nnc2ccc(N3CCC(c4ccc(OCCN5CCN(C)C(=O)[C@H]5C)cc4)CC3)nn12 [AZD5153] + CC1(C)CCC(CN2CCN(c3ccc(C(=O)NS(=O)(=O)c4ccc(NCC5CCOCC5)c([N+](=O)[O-])c4)c(Oc4cnc5[nH]ccc5c4)c3)CC2)=C(c2ccc(Cl)cc2)C1 [Venetoclax] (first compound max 1 µM, 7x7, partner max 1 µM)
0.0401

Reference for the values: the supplement of paper PMC11061612
